Items are presented alongside their recorded solvation free energy, 298 K.
Assay: solvent given as SMILES
Conditions: in CCCCCCCCCC
value_type: solvation free energy, 298 K (kcal/mol)

> print(dat)
         substance.smiles         u  result.number
1  c1ccc2c(c1)Nc1ccccc1S2  kcal/mol          -11.2
2                C1CCCCC1  kcal/mol          -4.11
3              Brc1ccccc1  kcal/mol          -5.43
4             CCCC(C)(C)O  kcal/mol          -4.54
5             CC(C)CC(C)C  kcal/mol          -4.06

* * *

Assay: solvent given as SMILES
Conditions: in CO
One threshold, -6 kcal/mol, splits the recorded solvation free energy, 298 K values: lower ones are MET, equal or higher ones are NOT MET.

> print(dat)
                  substance.smiles      cat
1                          CCCOCCC  NOT MET
2                         c1ccccc1  NOT MET
3  COc1cc(Cc2cnc(N)nc2N)cc(OC)c1OC      MET
4                      ClCc1ccccc1      MET
5          O=C(Oc1ccccc1)c1ccccc1O      MET
6                      CC(C)OC(C)C  NOT MET

* * *

Test: solvent given as SMILES
Conditions: in Cc1cccc(C)c1
Each entry falls into one class according to its solvation free energy, 298 K; the ranges are class A (below -9 kcal/mol), class B (-9 kcal/mol to below -0.6 kcal/mol), class C (-0.6 kcal/mol or more)

> print(dat)
         substance.smiles      cat
1         FS(F)(F)(F)(F)F  class C
2  O=c1c2ccccc2sc2ccccc12  class A
3                   O=C=O  class C
4                     COC  class B
5            Cc1ccc(N)cc1  class B
6                c1ccccc1  class B

* * *

Test: solvent given as SMILES
Conditions: in CCCCCCCCCCCCCCCC
As shown below, each of these compounds has a reported solvation free energy, 298 K value.
value_type: solvation free energy, 298 K (kJ/mol)

> print(dat)
        substance.smiles       u  result.number
 1            CCCCCCCC=O  kJ/mol          -24.4
 2                 O=C=O  kJ/mol         -0.502
 3           CCCCCC(C)=O  kJ/mol          -21.2
 4                CCCC#N  kJ/mol          -13.9
 5                 CCC=O  kJ/mol          -10.1
 6  O=[N+]([O-])c1ccccc1  kJ/mol          -25.6
 7               C1CCCC1  kJ/mol          -13.8
 8                  C#CC  kJ/mol          -5.86
 9         CN(C)c1ccccc1  kJ/mol          -26.8
10                  CC=O  kJ/mol          -6.32
11             Cc1ccccc1  kJ/mol          -19.1
12                CCCC=O  kJ/mol          -13.3
13          Clc1ccccc1Cl  kJ/mol          -25.3
14            O=C1CCCCC1  kJ/mol          -20.8
15                 ClCCl  kJ/mol          -11.4
16            COc1ccccc1  kJ/mol          -21.8
17           CCCC(=O)OCC  kJ/mol            -19
18                 O=S=O  kJ/mol           -4.6
19              CCCCCCCO  kJ/mol          -22.7
20                   C=C  kJ/mol          -1.63
21                CCCCCO  kJ/mol          -17.1
22           CCCCOC(C)=O  kJ/mol          -18.9
23             CCC(=O)CC  kJ/mol          -15.6

* * *

In this section we review reported solvation free energy, 298 K values for a set of molecules.
Experiment: solvent given as SMILES
Details: in CS(C)=O
value_type: solvation free energy, 298 K (kcal/mol)

> print(dat)
    substance.smiles         u  result.number
 1          c1ccccc1  kcal/mol          -3.96
 2          COC(C)=O  kcal/mol          -3.53
 3              C#CC  kcal/mol          -2.14
 4         Cc1ccccc1  kcal/mol          -4.53
 5          CCCC(C)C  kcal/mol          -1.78
 6       CC(C)CC(C)C  kcal/mol          -2.03
 7         C1CCCCCC1  kcal/mol           -3.1
 8             ClCCl  kcal/mol          -4.13
 9             COC=O  kcal/mol          -3.28
10                 S  kcal/mol          -2.04
11          C1CCCCC1  kcal/mol           -2.5
12          C=CCCCCC  kcal/mol          -2.51
13   FS(F)(F)(F)(F)F  kcal/mol          -0.05

* * *

solvation free energy, 298 K values for the molecules below.
Assay: solvent given as SMILES
Details: in Brc1ccccc1
value_type: solvation free energy, 298 K

> print(dat)
            substance.smiles          result
1  O=[N+]([O-])c1ccc(CCl)cc1  -5.65 kcal/mol
2                   C1CCCCC1  -4.07 kcal/mol
3                  Cc1ccccc1  -5.15 kcal/mol
4                        C=C  -0.52 kcal/mol

* * *

Experiment: solvent given as SMILES
Details: in CCCO
Label 1.0 when solvation free energy, 298 K < -9 kcal/mol; otherwise 0.0.

> print(dat)
                           substance.smiles  cat
1                O=[N+]([O-])c1cc(Cl)ccc1Cl  0.0
2                        CC(=O)Nc1ccc(O)cc1  1.0
3  O=C(O)c1cc([N+](=O)[O-])cc([N+](=O)[O-])c1  1.0
4                      c1cc2c3c(cccc3c1)CC2  0.0
5                    O=c1c2ccccc2sc2ccccc12  1.0

* * *

Test: solvent given as SMILES
Conditions: in CC(C)(C)O
Note to self: solvation free energy, 298 K under -7 kcal/mol means Criterion met, ties and anything higher get Criterion not met.

> print(dat)
                  substance.smiles                cat
 1           CC(=O)Oc1ccccc1C(=O)O      Criterion met
 2                 FS(F)(F)(F)(F)F  Criterion not met
 3                           O=C=O  Criterion not met
 4            c1cc2c3c(cccc3c1)CC2      Criterion met
 5              CC(=O)Nc1ccc(O)cc1      Criterion met
 6                      CC(C)(C)Cl  Criterion not met
 7                         CCC(C)C  Criterion not met
 8                       Cc1ccccc1  Criterion not met
 9                 Cc1ccccc1C(=O)O      Criterion met
10                        [2H][2H]  Criterion not met
11                         CCCOCCC  Criterion not met
12              COC(=O)c1ccc(O)cc1      Criterion met
13        CCCCCCCCCCCCCCCCCCCCCCCC      Criterion met
14                        C1CCCCC1  Criterion not met
15                O=C(O)CCCCC(=O)O      Criterion met
16          c1ccc2c(c1)Cc1ccccc1O2      Criterion met
17                            CCCO  Criterion not met
18  O=C1c2ccccc2C(=O)c2c(Cl)cccc21      Criterion met
19                             COC  Criterion not met
20                         CC(C)CO  Criterion not met
21       CCCCCCCCCCCCCCCCCCCCCCCCC      Criterion met
22      O=C(C(=O)c1ccccc1)c1ccccc1      Criterion met
23                        c1ccccc1  Criterion not met
24                          CCCC#N  Criterion not met
25                  CC(C)CC(C)(C)C  Criterion not met
26                      Clc1ccccc1  Criterion not met
